Here the recorded pIC50 is given for each entry.
- Study System: AXL (human catalytic domain) (Homo sapiens)
- Construct: purchased Upstate Ltd. 14-512
- Test Method Notes: AXL (human catalytic domain) Enzyme Activity Assay (IMAP fluorescence polarisation)
- Format: biochemical
- Experimental Context: further data set (WW-001 through WW-169, XX-001 through XX-469, YY-001 through YY-016, ZZ-001 through ZZ-003); 150 μM ATP
pIC50: −log10 of the molar value.

• COc1cc(CNc2cccc(-c3cccc4nc(Nc5ccc(OCCN6CCCC6)cc5)nn34)c2)cc(OC)c1 = 6.00 to 7.00
• Cn1nc(COc2cccc(-c3cccc4nc(Nc5ccc(OCCN6CCCC6)cc5)nn34)c2)c2ccccc21 = 6.00 to 7.00
• O=C(Nc1cccc(-c2cccc3nc(Nc4ccc(OCCN5CCCC5)cc4)nn23)c1)C1CC1 = 6.00 to 7.00
• COc1ccc(-c2cccc3nc(Nc4ccc(OCCNCCO)cc4)nn23)cc1 = 6.00 to 7.00
• COc1cc(Nc2nc3cccc(-c4ccc5c(c4)OCCO5)n3n2)ccc1OCCN1CCCC1 = ≥ 7.00
• Cc1cc(Nc2nc3cccc(-c4ccc5c(c4)OCCO5)n3n2)ccc1OCC(N)=O = 5.00 to 6.00
• c1cc(-c2ccc(-c3cn[nH]c3)cc2)n2nc(Nc3ccc(OCCN4CCCC4)cc3)nc2c1 = 6.00 to 7.00

Kindly review the next compound as well.
Input Fc1cccc(Cn2cc(-c3cccc4nc(Nc5ccc(OCCN6CCCC6)cc5)nn34)cn2)c1 . Output pIC50: 6.00 to 7.00

---

- Study System: AXL (human catalytic domain) (Homo sapiens, UniProt P30530)
- Construct: purchased Upstate Ltd. 14-512
- Test Method Notes: AXL (human catalytic domain) Enzyme Activity Assay (IMAP fluorescence polarisation)
- Assay type: biochemical
- Experimental Context: further data set (WW-001 through WW-169, XX-001 through XX-469, YY-001 through YY-016, ZZ-001 through ZZ-003); 150 μM ATP
pIC50: −log10 of the molar value.
Here the recorded pIC50 is given for each entry.

• O=C(Nc1cccc(Cl)c1)c1cccc(-c2cccc3nc(Nc4ccc(OCCN5CCCC5)cc4)nn23)c1 [XX-322] = 5.00 to 6.00
• Cc1cccc(CNc2cccc(-c3cccc4nc(Nc5ccc(OCCN6CCCC6)cc5)nn34)c2)c1 [XX-455] = 5.00 to 6.00
• O=C(O)Cn1cc(-c2cccc3nc(Nc4ccc(OCCN5CCCC5)cc4)nn23)cn1 [XX-440] = 5.00 to 6.00
• COc1cccc(COc2cccc(-c3cccc4nc(Nc5ccc(OCCN6CCCC6)cc5)nn34)c2)c1 [XX-335] = 6.00 to 7.00

Kindly review the next molecule as well.
Input c1coc(-c2ccc(-c3cccc4nc(Nc5ccc(OCCN6CCCC6)cc5)nn34)cc2)c1 [XX-188] . Output pIC50: 6.00 to 7.00

---

- Study System: AXL (human catalytic domain) (Homo sapiens, UniProt P30530)
- Construct: purchased Upstate Ltd. 14-512
- Sequence (P30530 473-894): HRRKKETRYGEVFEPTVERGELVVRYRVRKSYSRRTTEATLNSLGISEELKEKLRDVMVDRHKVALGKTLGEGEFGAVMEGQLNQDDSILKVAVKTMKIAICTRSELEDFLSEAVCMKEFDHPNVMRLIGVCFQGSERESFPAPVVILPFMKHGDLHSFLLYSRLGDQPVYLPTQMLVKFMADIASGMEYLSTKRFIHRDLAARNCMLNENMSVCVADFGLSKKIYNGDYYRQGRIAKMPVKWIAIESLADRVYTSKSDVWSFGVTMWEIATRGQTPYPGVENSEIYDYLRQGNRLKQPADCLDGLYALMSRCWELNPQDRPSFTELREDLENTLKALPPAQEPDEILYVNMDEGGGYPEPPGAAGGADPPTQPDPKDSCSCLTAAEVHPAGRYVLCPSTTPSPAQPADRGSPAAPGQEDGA
- Test Method Notes: AXL (human catalytic domain) Enzyme Activity Assay (IMAP fluorescence polarisation)
- Assay type: biochemical
- Experimental Context: further data set (WW-001 through WW-169, XX-001 through XX-469, YY-001 through YY-016, ZZ-001 through ZZ-003); 150 μM ATP
pIC50: −log10 of the molar value.
Here the recorded pIC50 is given for each entry.

* Cc1cccc(-c2cccc3nc(NC(=O)C4CC4)nn23)c1 | 5.00 to 6.00

Input O=C(Nc1nc2cccc(-c3ccc(N4CCOCC4)cc3)n2n1)C1CC1 . Output pIC50: 6.00 to 7.00

Input c1cc(NCCCN2CCCC2)cc(Nc2nc3cccc(-c4ccc5c(c4)OCCO5)n3n2)c1 . Output pIC50: 6.00 to 7.00

Input COc1ccc(-c2nc(COc3cccc(-c4cccc5nc(Nc6ccc(OCCN7CCCC7)cc6)nn45)c3)no2)cc1 . Output pIC50: 5.00 to 6.00

Input Cc1noc(C)c1S(=O)(=O)n1cc(-c2cccc3nc(Nc4ccc(OCCN5CCCC5)cc4)nn23)cn1 . Output pIC50: 6.00 to 7.00

Input COc1ccc(Nc2cccc3nc(NC(=O)C4CC4)nn23)cc1 . Output pIC50: 5.00 to 6.00
